# Measurement target: biotinylated HCV core peptide 151-171 (Peptide 3) (HCV-1)
# Protocol text: EIA, captured mAb
Measured metric: Reactivity (OD492) (OD)
Give the value in OD but do not write OD after it.

**Q:** Given HCV 208B-556 (antibody, V domains shown) VH: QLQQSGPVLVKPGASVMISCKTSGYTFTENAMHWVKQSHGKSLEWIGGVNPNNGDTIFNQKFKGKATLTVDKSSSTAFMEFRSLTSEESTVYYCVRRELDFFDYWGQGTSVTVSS VL: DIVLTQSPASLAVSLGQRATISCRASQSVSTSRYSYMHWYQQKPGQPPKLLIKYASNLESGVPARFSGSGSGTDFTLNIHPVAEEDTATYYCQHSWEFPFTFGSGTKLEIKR , state its recorded Reactivity (OD492).
**A:** 0.18
